- EXPERIMENTAL_SYSTEM: human TRβ-LBD (Homo sapiens)
- Construct: purchased Zhongding Biotechnology Co. Ltd
- Sequence (P10828 217-461 limits assumed): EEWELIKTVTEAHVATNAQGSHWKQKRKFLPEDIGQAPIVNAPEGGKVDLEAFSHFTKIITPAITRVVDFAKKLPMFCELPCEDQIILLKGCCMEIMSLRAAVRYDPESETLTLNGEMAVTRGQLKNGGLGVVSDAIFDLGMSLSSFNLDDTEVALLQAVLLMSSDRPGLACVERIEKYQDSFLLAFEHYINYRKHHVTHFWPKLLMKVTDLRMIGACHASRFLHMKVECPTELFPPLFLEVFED
- EXPERIMENT_SUMMARY: TRβ-LBD fluorescence polarization competitive binding assay (F-T3 probe)
- CONDITION_SET: IC20 of TBBPA divided by that of competitor; TBBPA set as 1.00
This section presents compounds with their documented TRβ-LBD RBP values.
Reply: number alone, nothing else.

Give TRβ-LBD RBP for C=CCOc1c(Br)cc(C(C)(C)c2cc(Br)c(O)c(Br)c2)cc1Br tested on human TRβ-LBD (Homo sapiens).
1.25

Give TRβ-LBD RBP for CC(C)(c1cc(Br)c(O)c(Br)c1)c1cc(Br)c(O)c(Br)c1 [TBBPA, Tetrabromobisphenol A, reference compound] tested on human TRβ-LBD (Homo sapiens).
1.00

Give TRβ-LBD RBP for CC(C)(c1cc(Br)c(O)c(Br)c1)c1cc(Br)c(OCC(Br)CBr)c(Br)c1 (stereo not shown) tested on human TRβ-LBD (Homo sapiens).
0.25

// below: TRβ-LBD RBP requested for another compound
Give TRβ-LBD RBP for CC(C)(c1cc(Br)c(OCC2CO2)c(Br)c1)c1cc(Br)c(OCC2CO2)c(Br)c1 (stereo not shown) tested on human TRβ-LBD (Homo sapiens).
0.20

Entry source: paper PMC7584160
